Recorded values, source paper PMC9822058.

Provide the recorded IC50 for the entries that follow.
target: α-amylase from Bacillus licheniformis (Bacillus licheniformis); experiment: biochemical; format: biochemical; conditions: read-out: α-amylase IC50 (converted)
Sequence (P06278 30-512): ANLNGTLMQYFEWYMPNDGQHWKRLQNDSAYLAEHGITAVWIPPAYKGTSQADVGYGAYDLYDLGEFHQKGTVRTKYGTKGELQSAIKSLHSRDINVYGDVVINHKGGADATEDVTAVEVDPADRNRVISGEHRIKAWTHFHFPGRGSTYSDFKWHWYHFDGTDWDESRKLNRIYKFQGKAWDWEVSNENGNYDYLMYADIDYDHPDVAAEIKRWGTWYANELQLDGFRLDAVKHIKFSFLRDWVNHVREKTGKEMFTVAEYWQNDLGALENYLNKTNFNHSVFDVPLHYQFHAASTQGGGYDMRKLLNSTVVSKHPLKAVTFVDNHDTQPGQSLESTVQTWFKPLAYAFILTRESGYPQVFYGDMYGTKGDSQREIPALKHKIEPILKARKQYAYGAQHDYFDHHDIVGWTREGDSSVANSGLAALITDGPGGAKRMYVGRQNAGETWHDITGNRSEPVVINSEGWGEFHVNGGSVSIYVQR

Below are worked cases with known answers.
COc1ccc2c(=O)c(-c3ccc(O)cc3)coc2c1: > 186 µM
COc1c(-c2ccc(O)c(O)c2)oc2cc(O)cc(O)c2c1=O: 152 µM
O=C(O)[C@H]1O[C@@H](Oc2cc(O)c3c(=O)cc(-c4ccc(O)cc4)oc3c2)[C@H](O)[C@@H](O)[C@@H]1O [compound 8, apigenin 7-O-glucoronide]: 109 µM
COc1ccc(C(C)C(=O)c2ccc(O)cc2O)cc1 (stereo not shown): > 184 µM

Each compound below has a recorded value; state its IC50.
1. COc1cc2c(=O)oc3c(OC)c(OC4OC(COC5OC(C)C(OC(C)=O)C(OC(C)=O)C5OC(C)=O)C(OC(C)=O)C(OC(C)=O)C4OC(C)=O)cc4c(=O)oc(c1OC)c2c34 (stereo not shown)
2. COc1cc2c(=O)oc3c(OC)c(OC4OC(COC5OC(C)C(O)C(O)C5O)C(O)C(O)C4O)cc4c(=O)oc(c1OC)c2c34 (stereo not shown)
3. Oc1cc(O)c2c(c1)OC1(c3ccc(O)c(O)c3)OC1C2c1c(O)cc(O)c2c1OC(c1ccc(O)c(O)c1)C(O)C2c1c(O)cc(O)c2c1OC(c1ccc(O)c(O)c1)C(O)C2 (stereo not shown)

Result block:
1. > 55.3 µM
2. > 76.6 µM
3. > 57.8 µM
